Origin of measurements: the supplement of paper PMC10567573

B1: CD207 (parent)
chain: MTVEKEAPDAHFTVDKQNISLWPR

- Variants of: B1
- measurement_notes: protein stability index of a GFP-peptide fusion (GPS, HEK-293T) (PSI 1-6); higher = more stable;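 further: lentivirally expressed fusions sorted by FACS into six bins by GFP to DsRed ratio, PSI derived from sequencing read proportions per bin multiplied by bin number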
- condition_set: c terminus: a fixed tail appended
Hi there, I'd appreciate the recorded protein stability index for every entry that follows.
Number, no unit, nothing else.

Given Q17C , state its recorded protein stability index. 2.8

Requested read-out: protein stability index. Entry: E4S 3.68

Quick one: protein stability index of K5F ? 2.02

Form field: reported protein stability index of A10G 3.75

Field request: protein stability index | item: K5E 4.03

# query: protein stability index of entry N18P 3.39

Which protein stability index is listed for H11K ? 3.4

Look up protein stability index: K16R 3.26

// returns reported protein stability index for input F12W 3.35

Item V14F has what recorded protein stability index? 2.42

Recorded protein stability index of E6Q , please. 3.25

What does the record list as protein stability index for P23C ? 2.69

Quick one: protein stability index for F12T ? 4.09

Find the recorded protein stability index belonging to F12S and report it. 4.1

Suppose we examine the variant F12V ; what protein stability index value has been reported? 3.74

For the variant shown here, A10I , give the reported protein stability index. 2.21

Could you share which protein stability index value was measured for E4Y ? 2.43

# input variant: V3M ; wanted: its protein stability index 3.09

For the variant shown here, V3D , give the reported protein stability index. 4.12

Quick one: protein stability index for T2A ? 3.35

What value of measured protein stability index is listed for A10Q ? 3.46

What value of protein stability index has been recorded for this entry: P8D 3.67

Given the entry L21R , report its measured protein stability index. 3.7

So what's the measured protein stability index for this one? W22I 4.73

Please look up its protein stability index: I19Y 3.41

Field request: protein stability index | item: K16W 2

Using the record for E6C , report its protein stability index. 2.32

Looking for the measured protein stability index of P8A , can you help? 3.52

Find the recorded protein stability index belonging to S20C and report it. 3.39

State the recorded protein stability index for this entry: T13M 3.12

Which measured protein stability index value corresponds to E4N ? 2.86

Item N18K has what recorded protein stability index? 3.4

# query: protein stability index of entry P23S 2.64

Reported protein stability index, variant Q17H : ____ 3.05

Please look up its protein stability index: R24T 3.63

What value of protein stability index has been reported for the following variant? D9S 3.25

# get_value(readout='protein stability index', item= H11G ) 3.06

// returns reported protein stability index for input T2H 3.08

Could you tell me which protein stability index is on file for R24M ? 2.24

Given the entry K16N , report its measured protein stability index. 3.49

Sample N18C — what was its protein stability index? 2.44

Value lookup for protein stability index; key = Q17N 2.97

If you can, please state the reported protein stability index value of T2W . 2.59

Which protein stability index reading was recorded for the variant P8L ? 2.65

If you can, please state the reported protein stability index value of Q17S . 2.31

For the variant P23N , what protein stability index is on record? 3.82
